# measurement-notes: xn = mol fraction of the nth substance listed, in the solute-free solvent
# measurement-conditions: 293.15 K; x2 = 0.9
solubility (g/100 g solution) below 8 gives F; solubility (g/100 g solution) at or above it gives T.

compound: Cc1c(Br)c(=O)n(C2CCCC2)c2nc(Cl)ncc12 + C1CCOC1 + CCO
classification: F

compound: NC(=O)NC1NC(=O)NC1=O (centres undefined) + O + CO
classification: F

compound: Cl.NC(Cc1ccccc1)C(=O)OCc1ccccc1 (centres undefined) + CO + CC(C)=O
classification: T

compound: O=C(NC(C(=O)O)c1ccccc1)OCc1ccccc1 (centres undefined) + CCO + O
classification: T

compound: Cc1ncc(CO)c(CO)c1O.Cl + O + CC(C)O
classification: T

compound: Cl.N=C(N)NC(=N)N1CCOCC1 + O + CC(C)O
classification: T

compound: CCOc1ccccc1C(N)=O + CC(C)O + CC#N
classification: F

compound: CCOc1ccccc1C(N)=O + CCO + CC#N
classification: F

compound: Cc1ncc(CO)c(CO)c1O.Cl + O + CC#N
classification: T

compound: CCOc1ccccc1C(N)=O + CO + CC#N
classification: T

compound: Cc1c(Br)c(=O)n(C2CCCC2)c2nc(Cl)ncc12 + CCOC(C)=O + CCO
classification: F

compound: Cc1c(Br)c(=O)n(C2CCCC2)c2nc(Cl)ncc12 + CC1=CC(=O)CC(C)(C)C1 + CC(C)O
classification: F

compound: Cc1ncc(CO)c(CO)c1O.Cl + O + CCCO
classification: T

compound: COC(=O)C(N)CS.Cl (centres undefined) + CCO + ClCCl
classification: T

###

Measured solubility (g/100 g solution), listed per entry for reference.
# measurement-notes: xn = mol fraction of the nth substance listed, in the solute-free solvent
# measurement-conditions: 293.15 K; x2 = 0.3
assay-metric: solubility (g/100 g solution)

compound: Cc1ncc(CO)c(CO)c1O.Cl + O + CCCO
result: 1.42
//
compound: Cc1c(Br)c(=O)n(C2CCCC2)c2nc(Cl)ncc12 + CC1=CC(=O)CC(C)(C)C1 + CC(C)O
result: 0.614
//
compound: Cl.N=C(N)NC(=N)N1CCOCC1 + O + CC(C)O
result: 2.75
//
compound: COC(=O)C(N)CS.Cl (stereo not drawn) + CCO + ClCCl
result: 3.54
//
compound: Cc1ncc(CO)c(CO)c1O.Cl + O + CC(C)O
result: 0.825
//
compound: CCOc1ccccc1C(N)=O + CO + CC#N
result: 6.26
//
compound: Cl.NC(Cc1ccccc1)C(=O)OCc1ccccc1 (stereo not drawn) + CO + CC(C)=O
result: 1.52
//
compound: Cc1c(Br)c(=O)n(C2CCCC2)c2nc(Cl)ncc12 + C1CCOC1 + CCO
result: 2.58
//
compound: CCOc1ccccc1C(N)=O + CCO + CC#N
result: 5.5
//
compound: Cc1c(Br)c(=O)n(C2CCCC2)c2nc(Cl)ncc12 + CCOC(C)=O + CCO
result: 0.491
//
compound: CCOc1ccccc1C(N)=O + CC(C)O + CC#N
result: 4.92
//
compound: O=C(NC(C(=O)O)c1ccccc1)OCc1ccccc1 (stereo not drawn) + CCO + O
result: 2.21
//
compound: Cc1ncc(CO)c(CO)c1O.Cl + O + CC#N
result: 1.02
